This collection of values is drawn from the supplement of paper PMC10307832.

test system: NCI-H1299; experiment: relative viability (nuclei count vs DMSO), 5 days (fraction); higher = more cells survive; settings: first compound 1.265 µM
Listed next: entries and their corresponding relative viability.
// return just the number, without any unit appended

Look over these answered cases.
Compound | Numeric result
Clc1ccc(Nc2nnc(Cc3ccncc3)c3ccccc23)cc1 [Vatalanib] + C[C@]1(O)C[C@@H](c2nc(-c3ccc4ccc(-c5ccccc5)nc4c3)c3c(N)nccn32)C1 [Linsitinib] (partner 1 µM) | 0.961
COc1cc(N2CCC(C(N)=O)CC2)ccc1Nc1nc(N)c(Cl)c(Nc2ccccc2S(=O)(=O)C(C)C)n1 [HG-5-88-01] + COc1cc2c(Oc3ccc(NC(=O)C4(C(=O)Nc5ccc(F)cc5)CC4)cc3F)ccnc2cc1OCCCN1CCOCC1 [Foretinib] (partner 0.25 µM) | 1.07
Clc1ccc(Nc2nnc(Cc3ccncc3)c3ccccc23)cc1 [Vatalanib] + Cc1nc(NC(=O)N2CCC[C@H]2C(N)=O)sc1-c1ccnc(C(C)(C)C(F)(F)F)c1 [Alpelisib] (partner 2 µM) | 1.02
Clc1ccc(Nc2nnc(Cc3ccncc3)c3ccccc23)cc1 [Vatalanib] + O=C(c1cc(Cc2n[nH]c(=O)c3ccccc23)ccc1F)N1CCN(C(=O)C2CC2)CC1 [Olaparib] (partner 8 µM) | 0.923

Give the value of relative viability reported for the following: Clc1ccc(Nc2nnc(Cc3ccncc3)c3ccccc23)cc1 [Vatalanib] + CC(C)C[C@H](NC(=O)[C@H](Cc1ccccc1)NC(=O)c1cnccn1)B(O)O [Bortezomib] (partner 0.002 µM) 1.04

---

test system: NCI-H1395; experiment: relative viability (nuclei count vs DMSO), 5 days (fraction); higher = more cells survive; conditions: first compound 0.4 µM
Quantity kind: relative viability
// return just the number, without any unit appended

Look over these answered cases.
Compound | relative viability
Clc1ccc(Nc2nnc(Cc3ccncc3)c3ccccc23)cc1 [Vatalanib] + CC(=O)c1c(C)c2cnc(Nc3ccc(N4CCNCC4)cn3)nc2n(C2CCCC2)c1=O [Palbociclib] (partner 0.5 µM) | 0.631
C[C@@H]1CN(CC(=O)Nc2ccc3c(c2)Cc2cccc(-c4cc(=O)cc(N5CCOCC5)o4)c2S3)C[C@H](C)O1 + COc1cc2c(Oc3ccc(NC(=O)C4(C(=O)Nc5ccc(F)cc5)CC4)cc3F)ccnc2cc1OCCCN1CCOCC1 [Foretinib] (partner 0.25 µM) | 0.982
COc1cc(N2CCC(C(N)=O)CC2)ccc1Nc1nc(N)c(Cl)c(Nc2ccccc2S(=O)(=O)C(C)C)n1 [HG-5-88-01] + Nc1nc2[nH]cc(CCc3ccc(C(=O)N[C@@H](CCC(=O)O)C(=O)O)cc3)c2c(=O)[nH]1 [Pemetrexed] (partner 0.2 µM) | 0.751

Give the value of relative viability reported for the following: Clc1ccc(Nc2nnc(Cc3ccncc3)c3ccccc23)cc1 [Vatalanib] + Nc1nc2[nH]cc(CCc3ccc(C(=O)N[C@@H](CCC(=O)O)C(=O)O)cc3)c2c(=O)[nH]1 [Pemetrexed] (partner 0.2 µM) 0.767

---

system: HCC-827; test: relative viability (nuclei count vs DMSO), 5 days (fraction); higher = more cells survive; conditions: first compound 0.4 µM
Quantity kind: relative viability

Look over these answered cases.
Compound | Result
COc1cc(N2CCC(C(N)=O)CC2)ccc1Nc1nc(N)c(Cl)c(Nc2ccccc2S(=O)(=O)C(C)C)n1 [HG-5-88-01] + Cc1nc(Nc2ncc(C(=O)Nc3c(C)cccc3Cl)s2)cc(N2CCN(CCO)CC2)n1 [Dasatinib] (partner 0.075 µM) | 0.235
C[C@@H]1CN(CC(=O)Nc2ccc3c(c2)Cc2cccc(-c4cc(=O)cc(N5CCOCC5)o4)c2S3)C[C@H](C)O1 + CC(C)C[C@H](NC(=O)[C@H](Cc1ccccc1)NC(=O)c1cnccn1)B(O)O [Bortezomib] (partner 0.002 µM) | 1.06
C[C@@H]1CN(CC(=O)Nc2ccc3c(c2)Cc2cccc(-c4cc(=O)cc(N5CCOCC5)o4)c2S3)C[C@H](C)O1 + C[C@]1(O)C[C@@H](c2nc(-c3ccc4ccc(-c5ccccc5)nc4c3)c3c(N)nccn32)C1 [Linsitinib] (partner 1 µM) | 0.978

Give the value of relative viability reported for the following: COc1cc(N2CCC(C(N)=O)CC2)ccc1Nc1nc(N)c(Cl)c(Nc2ccccc2S(=O)(=O)C(C)C)n1 [HG-5-88-01] + CC(C)C[C@H](NC(=O)[C@H](Cc1ccccc1)NC(=O)c1cnccn1)B(O)O [Bortezomib] (partner 0.002 µM) 1.06
